Origin of the recorded values: patent US12507703B2

Assignment: determine reported Lipase (RFU) for the given compounds.
Test system: lipase
procedure-text: Lipase/lipolysis assay (EnzChek Lipase Substrate, quenched BODIPY-fatty acid conjugate) on stored human milk; also: test concentration or dose not given here
One number for each entry, in RFU.

# example entries with known answers
{"compound": "C[C@@H]1CCCCCCCCCCCCC(=O)C1 [Muscone]", "property-measured": "Lipase (RFU)", "readout-number": 696.5228}
{"compound": "O=C1C[C@@H](c2ccc(O)c(O)c2)Oc2cc(O[C@@H]3O[C@H](CO)[C@@H](O)[C@H](O)[C@H]3O)cc(O)c21 [Eriodictyol-7-O-glucoside]", "property-measured": "Lipase (RFU)", "readout-number": 982.3042}
{"compound": "C/C1=C2/[N-][C@H]([C@H](CC(N)=O)[C@@]2(C)CCC(=O)NC[C@H](C)OP(=O)([O-])O[C@H]2[C@@H](O)[C@@H](n3cnc4cc(C)c(C)cc43)O[C@@H]2CO)[C@]2(C)N=C(/C(C)=C3N=C(/C=C4N=C1[C@@H](CCC(N)=O)C\\4(C)C)[C@@H](CCC(N)=O)[C@]\\3(C)CC(N)=O)[C@@H](CCC(N)=O)[C@]2(C)CC(N)=O.[CH3-].[Co+3] [Methylcobalamin]", "property-measured": "Lipase (RFU)", "readout-number": 1187.639}
{"compound": "C=C(O[C@@H]1C=C(C(=O)O)C=C[C@H]1O)C(=O)O [Chorismic Acid]", "property-measured": "Lipase (RFU)", "readout-number": 935.6375}
{"compound": "C/C(=C\\CC[C@@H](C)[C@H]1CC[C@@]2(C)C3=C(CC[C@]12C)[C@@]1(C)CCC(=O)C(C)(C)[C@@H]1CC3=O)C(=O)O [Ganoderic acid DM]", "property-measured": "Lipase (RFU)", "readout-number": 1077.482}
{"compound": "CC(=O)O[C@H](CC(=O)O)C[N+](C)(C)C.[Cl-] [Acetyl-L-carnitine (hydrochloride)]", "property-measured": "Lipase (RFU)", "readout-number": 1004.353}

For each entry beneath this line, provide reported Lipase (RFU).
1. O=C1C[C@@H](c2ccc(O)cc2)Oc2cc(O[C@@H]3O[C@H](CO)[C@@H](O)[C@H](O)[C@H]3O)ccc21 [Neoliquiritin]
2. O=C(O)[C@@H]1C[C@@H](O)CN1 [trans-4-Hydroxy L-Proline]
3. CC1(C)CC[C@]2(C(=O)O)CC[C@]3(C)C(=CC[C@@H]4[C@@]5(C)C[C@@H](O)[C@H](O)C(C)(C)[C@@H]5CC[C@]43C)[C@@H]2C1 [Maslinic acid]
4. C=C[C@@H](O)C#CC#C[C@@H](O)/C=C\CCCCCCC [Falcarindiol]
5. O=C(O)CCCCC1CCSS1 (stereo not shown) [Lipoic acid]
6. OC[C@H]1O[C@@H](O[C@H]2[C@H](O)[C@@H](O)[C@@H](O)O[C@@H]2CO)[C@H](O)[C@@H](O)[C@H]1O [Lactose]

Result:
[772.4579, 608.0856, 1120.923, 827.8455, 1146.052, 912.5223]

For each entry beneath this line, provide reported Lipase (RFU).
1. C[C@]12CC[C@@H](O)C[C@H]1CC[C@@H]1[C@@H]2CC[C@]2(C)C(=O)CC[C@@H]12 [Etiocholanolone]
2. CCCCCCCCCCC/C=C\CCCCC(=O)O [Petroselinic acid]
3. C1CNCCN1.O=C(O)CC(O)(CC(=O)O)C(=O)O [Piperazine (citrate)]
4. Nc1ncnc2c1ncn2[C@@H]1O[C@H](CSCC[C@H](N)C(=O)O)[C@@H](O)[C@H]1O [SAH]

Result:
[868.806, 886.6723, 986.285, 641.7279]

###

Assignment: determine reported Lipase (RFU) for the given compounds.
Tested on: lipase
procedure-text: Lipase/lipolysis assay (EnzChek Lipase Substrate, quenched BODIPY-fatty acid conjugate) on stored human milk; also: test concentration or dose not given here
Answers are plain numbers, in RFU.

# example entries with known answers
{"compound": "CC(C)=C[C@H]1C[C@](C)(O)[C@@H]2[C@H]3CC[C@@H]4[C@@]5(C)CC[C@H](O[C@@H]6OC[C@H](O)[C@H](O[C@@H]7O[C@H](CO)[C@@H](O)[C@H](O)[C@H]7O[C@@H]7OC[C@@H](O)[C@H](O)[C@H]7O)[C@H]6O[C@@H]6O[C@@H](C)[C@H](O)[C@@H](O)[C@H]6O)C(C)(C)[C@@H]5CC[C@@]4(C)[C@@]34CO[C@@]2(C4)O1 [Jujuboside B]", "Lipase (RFU)": 877.6814}
{"compound": "CC1(C)CCC[C@]2(C)[C@H]3CCO[C@]3(C)CC[C@@H]12 [Ambroxide]", "Lipase (RFU)": 1042.515}

Alright, here's another compound for you.
Problem: What Lipase (RFU) value was documented for this compound, Nc1ccn([C@@H]2O[C@H](COP(=O)([O-])OP(=O)([O-])OP(=O)(O)O)[C@@H](O)[C@H]2O)c(=O)n1.[Na+].[Na+] [Cytidine-5′-triphosphate (disodium)] ?
Result: 1141.901

###

Tested on: lipase
procedure-text: Lipase/lipolysis assay (EnzChek Lipase Substrate, quenched BODIPY-fatty acid conjugate) on stored human milk; also: test concentration or dose not given here
property-measured: Lipase (RFU)
# do not omit the unit; it follows the number

{"molecule": "Nc1ccccc1C(=O)C[C@H](N)C(=O)O [L-Kynurenine]", "property-measured": "Lipase (RFU)", "result": "761.0277 RFU"}
{"molecule": "CCCCC/C=C\\C/C=C\\CCCCCCCC(=O)OCC(COC(=O)CCCCCCC/C=C\\C/C=C\\CCCCC)OC(=O)CCCCCCC/C=C\\C/C=C\\CCCCC [Trilinolein]", "property-measured": "Lipase (RFU)", "result": "834.4039 RFU"}
{"molecule": "C[C@@]12CCc3occc3[C@H]1CC[C@@]13C[C@@H](CC[C@H]12)[C@@](O)(CO)C3 [Cafestol]", "property-measured": "Lipase (RFU)", "result": "1003.112 RFU"}
{"molecule": "CC(=O)O[C@@H]1C(=O)C2=C(C(=O)C[C@H]3C(C)(C)C(=O)CC[C@]23C)[C@]2(C)C(=O)C[C@H]([C@H](C)CC(=O)CC(C)C(=O)O)[C@@]12C (stereo partly drawn) [Ganoderic acid F]", "property-measured": "Lipase (RFU)", "result": "791.7198 RFU"}
{"molecule": "C[N+](C)(C)CCOP(=O)(O)O.[Cl-] [Phosphorylcholine (chloride)]", "property-measured": "Lipase (RFU)", "result": "831.0181 RFU"}

Alright, here's another molecule for you.
Problem: What Lipase (RFU) value was documented for this molecule, C[C@@H]1CC[C@@]2(OC1)O[C@H]1C[C@H]3[C@@H]4CC=C5C[C@@H](O[C@@H]6O[C@H](CO)[C@@H](O)[C@H](O)[C@H]6O)CC[C@]5(C)[C@H]4CC[C@]3(C)[C@H]1[C@@H]2C [Diosgenin glucoside] ?
Result: 1057.302 RFU

###

System: lipase
procedure-text: Lipase/lipolysis assay (EnzChek Lipase Substrate, quenched BODIPY-fatty acid conjugate) on stored human milk; also: test concentration or dose not given here
Where a SMILES comes first, the peptide text is derived from it.
Assignment: determine reported Lipase (RFU) for the given compounds.
Numbers only, in RFU.

# example entries with known answers
{"compound": "CC(C)C(=O)O[C@H](CC(=O)O)C[N+](C)(C)C.[Cl-] [Isobutyryl-L-carnitine (chloride)]", "Lipase (RFU)": 1069.653}
{"compound": "CC/C=C\\CC1=C(C)CCC1=O [cis-Jasmone]", "Lipase (RFU)": 1015.76}
{"compound": "Nc1ncnc2c1ncn2[C@H]1C[C@H](O)[C@@H](CO)O1.O [2′-Deoxyadenosine monohydrate]", "Lipase (RFU)": 945.7798}

For each entry beneath this line, provide reported Lipase (RFU).
1. O=C1/C(=C2\Nc3ccc(S(=O)(=O)[O-])cc3C2=O)Nc2ccc(S(=O)(=O)[O-])cc21.[Na+].[Na+] [Indigo carmine]
2. OC[C@H]1O[C@@](CO)(O[C@H]2O[C@H](CO)[C@@H](O)[C@H](O)[C@H]2O)[C@@H](O[C@H]2O[C@H](CO)[C@@H](O)[C@H](O)[C@H]2O)[C@@H]1O [D-Melezitose]
3. NCC(=O)N[C@@H](CCC(=O)O)C(=O)O [Glycyl-L-Glutamic Acid] (H-Gly-Glu-OH)
4. O=C(CO)[C@@H](O)[C@H](O)[C@@H](O)CO [L-Sorbose]
5. COc1cc(/C=C/C(=O)NCC(O)c2ccc(O)cc2)ccc1O (stereo not shown) [N-Feruloyloctopamine]

Result:
862.5624
1021.506
846.2286
1197.031
893.4142

For each entry beneath this line, provide reported Lipase (RFU).
1. Cc1ccc(C=O)cc1 [p-Tolualdehyde]
2. OC[C@H]1O[C@H](OC[C@H]2O[C@H](O[C@H]3[C@H](O)[C@@H](O)C(O)O[C@@H]3CO)[C@H](O)[C@@H](O)[C@@H]2O)[C@H](O)[C@@H](O)[C@@H]1O (stereo partly drawn) [D-Panose]
3. CCCCCCCCCCC[C@@H](C[C@@H]1OC(=O)[C@H]1CCCCCC)OC(=O)[C@H](CC(C)C)NC=O [Orlistat, reference compound]
4. OC[C@H]1O[C@@H](O[C@H]2[C@H](O)[C@@H](O)[C@H](O)O[C@@H]2CO)[C@H](O)[C@@H](O)[C@@H]1O [D-Cellobiose]
5. O=C1O[C@H]([C@@H](O)CO)[C@H](O)[C@@H]1O [L-Gulono-1,4-lactone]
6. COn1cc(CC#N)c2ccccc21 [Caulilexin C]

Result:
1. 1029.761
2. 982.4149
3. 234.506
4. 785.8282
5. 1139.877
6. 998.4752

For each entry beneath this line, provide reported Lipase (RFU).
1. COc1ccc2c(=O)c(-c3ccc(O)cc3)coc2c1 [Isoformononetin]
2. O=CO [Formic Acid]

Result:
[1355.098, 1027.958]
